- ASSAY EXPLANATION: UV-vis titration / Benesi-Hildebrand plot / Job's plot of peptide with Cu^2+ ions
- Type: binding
- ASSAY SETUP: read-out: stability constant (converted)
Peptide text beside a SMILES is read from it.
RECORDED METRIC: Kd (µM)
Answers are plain numbers, in µM.

Prompt: Query (compound): N[C@@H](Cc1c[nH]c2ccccc12)C(=O)N[C@@H](Cc1c[nH]cn1)C(=O)N[C@@H](Cc1c[nH]cn1)C(=O)N[C@@H](Cc1c[nH]c2ccccc12)C(=O)O [WHHW, Trp-His-His-Trp] (H-WHHW-OH) ; field requested: Kd
Completion: 145
